measured-endpoint: melting point (°C)
Give bare numbers, in °C.

State the recorded melting point for every item in the following list.
1. O=C1NCCn2nc(-c3ccncc3)c(-c3ccc(OCC#Cc4ccccc4)cc3)c21 [Compound 142]
2. c1cc(-c2nn3c(c2-c2ccc(OCc4ccc(C5CC5)nc4)cc2)CNCC3)ccn1 [Compound 186]
3. CC(C)c1ccc(COc2ccc(-c3c(-c4ccncc4)nn4c3CN(CC(=O)N(C)C)CC4)cc2)cc1 [Compound 177]
4. O=C1NCCCn2nc(-c3ccncc3)c(-c3ccc(OCc4ccc(C5CC5)cc4)cc3)c21 [Compound 228]
5. CC(C)c1ccc(COc2ccc(-c3c(-c4ccncc4)nn4c3C(=O)NCC4)cc2Cl)cc1 [Compound 25]

Data returned:
1. 245
2. 195
3. 95
4. 235
5. 251

State the recorded melting point for every item in the following list.
1. O=C1NCCn2nc(-c3ccncc3)c(-c3ccc(OCc4ccc(C(F)(F)F)cc4)cc3)c21 [Compound 119]
2. CC(C)c1ccc(COc2ccc(-c3c(-c4ccncc4)nn4c3C(=O)NCC4)cc2)cc1CCO [Compound 11]
3. COc1cc(-c2c(-c3ccnc(N)c3)nn3c2C(=O)NCC3)ccc1OCc1ccc(C(C)C)cc1 [Compound 149]

Data returned:
1. 280
2. 195
3. 179
